- System: Streptococcus pyogenes
- assay.info: Antibacterial activity against Streptococcus pyogenes 9619 after 18 to 24 hrs by twofold serial dilution method
- Type: functional
The label is yes for MIC below 30 µg/mL and no for MIC equal to or exceeding 30 µg/mL.

>>> assigned_class("CO/N=C1\\CN(c2nc3c(cc2F)c(=O)c(C(=O)O)cn3C2CC2)CC1CN (stereo unspecified)")
"yes"
>>> assigned_class("CCO/N=C1/CCN(c2nc3c(cc2F)c(=O)c(C(=O)O)cn3-c2ccc(F)cc2F)CC1(C)N (stereo unspecified)")
"no"
>>> assigned_class("CO/N=C1/CCN(c2nc3c(cc2F)c(=O)c(C(=O)O)cn3-c2ccc(F)cc2F)CC1(C)N (stereo unspecified)")
"no"
>>> assigned_class("CCO/N=C1/CCN(c2c(F)cc3c(=O)c(C(=O)O)cn(CCF)c3c2F)CC1(C)N (stereo unspecified)")
"no"
>>> assigned_class("C[C@H]1COc2c(N3CCN(C)CC3)c(F)cc3c(=O)c(C(=O)O)cn1c23.C[C@H]1COc2c(N3CCN(C)CC3)c(F)cc3c(=O)c(C(=O)O)cn1c23.O")
"yes"
>>> assigned_class("CO/N=C1/CCN(c2c(F)cc3c(=O)c(C(=O)O)cn(CCF)c3c2F)CC1(C)N (stereo unspecified)")
"yes"

###

- assay.info: Cytotoxicity against african green monkey Vero cells assessed as cell viability after 72 hrs by MTT assay
- Format: cell-based
- condition.summary: chlorocebus sabaeus
readout.kind: CC50 at 72 h

>>> reported_measurement("CO/N=C1/CCN(c2nc3c(cc2F)c(=O)c(C(=O)O)cn3-c2ccc(F)cc2F)CC1(C)N (stereo not given)")
"259 µM"
>>> reported_measurement("CO/N=C1/CCN(c2c(F)cc3c(=O)c(C(=O)O)cn(CCF)c3c2F)CC1(C)N (stereo not given)")
"626 µM"
>>> reported_measurement("CCO/N=C1/CCN(c2nc3c(cc2F)c(=O)c(C(=O)O)cn3-c2ccc(F)cc2F)CC1(C)N (stereo not given)")
"31.4 µM"
>>> reported_measurement("CCO/N=C1/CCN(c2c(F)cc3c(=O)c(C(=O)O)cn(CCF)c3c2F)CC1(C)N (stereo not given)")
"243 µM"
>>> reported_measurement("C[C@H]1COc2c(N3CCN(C)CC3)c(F)cc3c(=O)c(C(=O)O)cn1c23.C[C@H]1COc2c(N3CCN(C)CC3)c(F)cc3c(=O)c(C(=O)O)cn1c23.O")
"> 1000 µM"

###

Reported values of log10 of MIC for individual entries
- Test system: Pseudomonas aeruginosa
- assay.info: Antibacterial activity against Pseudomonas aeruginosa 17 after 18 to 24 hrs by twofold serial dilution method
- Format: functional
readout.kind: log10 of MIC (log10 of the value in µg/mL)

>>> reported_measurement("CO/N=C1\\CN(c2nc3c(cc2F)c(=O)c(C(=O)O)cn3C2CC2)CC1CN (stereo unspecified)")
-0.90
>>> reported_measurement("CCO/N=C1/CCN(c2c(F)cc3c(=O)c(C(=O)O)cn(CCF)c3c2F)CC1(C)N (stereo unspecified)")
2.11
>>> reported_measurement("C[C@H]1COc2c(N3CCN(C)CC3)c(F)cc3c(=O)c(C(=O)O)cn1c23.C[C@H]1COc2c(N3CCN(C)CC3)c(F)cc3c(=O)c(C(=O)O)cn1c23.O")
-0.30
>>> reported_measurement("CCO/N=C1/CCN(c2nc3c(cc2F)c(=O)c(C(=O)O)cn3-c2ccc(F)cc2F)CC1(C)N (stereo unspecified)")
1.81
>>> reported_measurement("CO/N=C1/CCN(c2nc3c(cc2F)c(=O)c(C(=O)O)cn3-c2ccc(F)cc2F)CC1(C)N (stereo unspecified)")
1.51
>>> reported_measurement("CO/N=C1/CCN(c2c(F)cc3c(=O)c(C(=O)O)cn(CCF)c3c2F)CC1(C)N (stereo unspecified)")
1.51

###

Entries and their MIC
- System: Staphylococcus aureus
- assay.info: Antibacterial activity against methicillin-resistant Staphylococcus aureus 05-3 after 18 to 24 hrs by twofold serial dilution method
- Format: functional
readout.kind: MIC (mg/L)

>>> reported_measurement("C[C@H]1COc2c(N3CCN(C)CC3)c(F)cc3c(=O)c(C(=O)O)cn1c23.C[C@H]1COc2c(N3CCN(C)CC3)c(F)cc3c(=O)c(C(=O)O)cn1c23.O")
32
>>> reported_measurement("CCO/N=C1/CCN(c2nc3c(cc2F)c(=O)c(C(=O)O)cn3-c2ccc(F)cc2F)CC1(C)N (stereo unspecified)")
128
>>> reported_measurement("CO/N=C1\\CN(c2nc3c(cc2F)c(=O)c(C(=O)O)cn3C2CC2)CC1CN (stereo unspecified)")
4

###

- Test system: Klebsiella pneumoniae
- assay.info: Antibacterial activity against Klebsiella pneumoniae 7 after 18 to 24 hrs by twofold serial dilution method
- Format: functional
The molecules listed here are annotated with their MIC.
readout.kind: MIC (µg/mL)

>>> reported_measurement("CCO/N=C1/CCN(c2nc3c(cc2F)c(=O)c(C(=O)O)cn3-c2ccc(F)cc2F)CC1(C)N (stereo not given)")
8
>>> reported_measurement("CO/N=C1\\CN(c2nc3c(cc2F)c(=O)c(C(=O)O)cn3C2CC2)CC1CN (stereo not given) [GEMIFLOXACIN]")
0.5
>>> reported_measurement("CO/N=C1/CCN(c2c(F)cc3c(=O)c(C(=O)O)cn(CCF)c3c2F)CC1(C)N (stereo not given)")
4
>>> reported_measurement("CO/N=C1/CCN(c2nc3c(cc2F)c(=O)c(C(=O)O)cn3-c2ccc(F)cc2F)CC1(C)N (stereo not given)")
8
>>> reported_measurement("CCO/N=C1/CCN(c2c(F)cc3c(=O)c(C(=O)O)cn(CCF)c3c2F)CC1(C)N (stereo not given)")
4

###

- Tested on: Staphylococcus aureus
- assay.info: Antibacterial activity against methicillin-resistant Staphylococcus aureus 05-3 after 18 to 24 hrs by twofold serial dilution method
- Assay type: functional
# maps each entry to its MIC
readout.kind: MIC

>>> reported_measurement("CO/N=C1/CCN(c2c(F)cc3c(=O)c(C(=O)O)cn(CCF)c3c2F)CC1(C)N (stereo not drawn)")
"> 128 µg/mL"
>>> reported_measurement("CCO/N=C1/CCN(c2c(F)cc3c(=O)c(C(=O)O)cn(CCF)c3c2F)CC1(C)N (stereo not drawn)")
"> 128 µg/mL"
>>> reported_measurement("CO/N=C1/CCN(c2nc3c(cc2F)c(=O)c(C(=O)O)cn3-c2ccc(F)cc2F)CC1(C)N (stereo not drawn)")
"> 128 µg/mL"
